Biological target: AgAOctR (Anopheles octopamine receptor isoform A), cloned α-like OctR (Anopheles gambiae)
Construct: Gq calcium readout
Sequence (Q7PRZ8 1-592): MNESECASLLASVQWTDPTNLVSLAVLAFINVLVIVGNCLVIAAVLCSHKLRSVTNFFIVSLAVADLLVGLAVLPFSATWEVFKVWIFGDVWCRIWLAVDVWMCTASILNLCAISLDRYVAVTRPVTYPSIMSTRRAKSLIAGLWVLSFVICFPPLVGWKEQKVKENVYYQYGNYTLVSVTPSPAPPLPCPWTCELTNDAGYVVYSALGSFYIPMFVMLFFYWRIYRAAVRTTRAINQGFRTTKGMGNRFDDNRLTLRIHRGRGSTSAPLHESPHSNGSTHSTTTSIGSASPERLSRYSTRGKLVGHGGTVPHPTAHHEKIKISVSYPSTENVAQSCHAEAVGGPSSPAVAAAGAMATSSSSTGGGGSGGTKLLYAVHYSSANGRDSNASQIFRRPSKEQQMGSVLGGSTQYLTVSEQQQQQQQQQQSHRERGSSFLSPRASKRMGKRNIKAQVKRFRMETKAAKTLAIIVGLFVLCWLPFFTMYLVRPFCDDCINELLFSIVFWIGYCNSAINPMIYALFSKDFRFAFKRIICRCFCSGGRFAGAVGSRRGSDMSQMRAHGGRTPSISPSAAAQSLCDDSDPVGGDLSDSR
Test: OctR activation: change in intracellular calcium (CALCIUM 6QR dye, FlexStation 3) in stably transfected mammalian cells
Format: cell-based
Conditions: agonist
PARAMETER: EC50 (nM)
// units = nM; emit number, no label

Here is how some compounds turned out for EC50.
| COMPOUND | PARAMETER | RECORDED_MEASUREMENT |
| --- | --- | --- |
| C/C=C(/c1cnc[nH]1)c1cccc(C)c1C [AZ1440 E-isomer] | EC50 | 10 |
| C=C(c1cnc[nH]1)c1cccc(Cl)c1C | EC50 | 0.025 |
| COC(c1cnc[nH]1)c1cccc(C)c1C (stereo not shown) | EC50 | 2.3 |

Fill in: AgAOctR (Anopheles octopamine receptor isoform A), cloned α-like OctR (Anopheles gambiae) EC50 for Cc1c(C(O)c2cnc[nH]2)cccc1C(F)(F)F (stereo not shown) = 11

Cc1cccc(C(O)c2cnc[nH]2)c1 (stereo not shown) on AgAOctR (Anopheles octopamine receptor isoform A), cloned α-like OctR (Anopheles gambiae) gives EC50 = 38

AgAOctR (Anopheles octopamine receptor isoform A), cloned α-like OctR (Anopheles gambiae) EC50 of "C=C(c1cnc[nH]1)c1cccc(F)c1C" is 0.11

# EC50 measured on AgAOctR (Anopheles octopamine receptor isoform A), cloned α-like OctR (Anopheles gambiae) for item C/C=C(\c1cnc[nH]1)c1cccc(C)c1C [AZ1409 Z-isomer] = 58

Test item "C=C(c1cnc[nH]1)c1cccc(C(F)(F)F)c1C" ; AgAOctR (Anopheles octopamine receptor isoform A), cloned α-like OctR (Anopheles gambiae); reported EC50 was 0.58

Fill in: AgAOctR (Anopheles octopamine receptor isoform A), cloned α-like OctR (Anopheles gambiae) EC50 for Cc1cccc(C(O)c2cnc[nH]2)c1C (stereo not shown) = 0.42

Field EC50 (system: AgAOctR (Anopheles octopamine receptor isoform A), cloned α-like OctR (Anopheles gambiae)) for entry "C=C(c1cnc[nH]1)c1cccc(C)c1C" = 0.013
